Tested on: ATP;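 note: ATP exposure 15 min at 22 °C before imaging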
Experiment: switch fluorescence ratio, 500 uM ATP over buffer (Cy3 cluster intensity, sum of 5 cycles each) (fold (ratio)); higher = stronger signal-on switching upon ATP binding; sequences stand for … in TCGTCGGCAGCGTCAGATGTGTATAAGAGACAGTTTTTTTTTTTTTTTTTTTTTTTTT…TC
Details: aptamer strand: ATP DNA aptamer (quencher-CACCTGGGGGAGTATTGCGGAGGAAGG + anchor), 100 nM annealed; ATP concentration: 500 uM

- chain: "GGTCAGGTGA"
  switch fluorescence ratio: 0.972
- chain: "CCTAGGATTC"
  switch fluorescence ratio: 1.01
- chain: "TTTTATGATT"
  switch fluorescence ratio: 0.997
- chain: "TCGGCTATG"
  switch fluorescence ratio: 1.12
- chain: "CTTGCATTGA"
  switch fluorescence ratio: 1.08
- chain: "CCTCTATTCA"
  switch fluorescence ratio: 1.06
- chain: "GACAATAAGT"
  switch fluorescence ratio: 1.04
- chain: "ACGTATTTTT"
  switch fluorescence ratio: 1.12
- chain: "AACATAAAAA"
  switch fluorescence ratio: 1.26
- chain: "GAGGTTGGGG"
  switch fluorescence ratio: 1.02
- chain: "TTATTGACGT"
  switch fluorescence ratio: 1

----------
Test system: ATP;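 note: ATP exposure 15 min at 22 °C before imaging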
Assay: switch fluorescence ratio, 500 uM ATP over buffer (Cy3 cluster intensity, sum of 5 cycles each) (fold (ratio)); higher = stronger signal-on switching upon ATP binding; sequences stand for … in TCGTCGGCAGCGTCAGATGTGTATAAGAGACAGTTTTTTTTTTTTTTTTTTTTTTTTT…TC
Settings: aptamer strand: ATP DNA aptamer (quencher-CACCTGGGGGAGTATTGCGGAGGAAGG + anchor), 100 nM annealed; ATP concentration: 500 uM
Catalogue of switch fluorescence ratio readings, one per entry.

- chain: "AATGTCTGGG"
  switch fluorescence ratio: 0.998
- chain: "TGGAATGGTG"
  switch fluorescence ratio: 1.05
- chain: "AAGTTACAGT"
  switch fluorescence ratio: 1.04
- chain: "TCGGGGGGAA"
  switch fluorescence ratio: 1.06
- chain: "AGGAGCTTTC"
  switch fluorescence ratio: 1.08
- chain: "AAGTGGGTAT"
  switch fluorescence ratio: 1.16
- chain: "TAGCGAAGTG"
  switch fluorescence ratio: 0.929
- chain: "GAGTGAGCAG"
  switch fluorescence ratio: 0.976
- chain: "GCAACAATGG"
  switch fluorescence ratio: 1.08

----------
Tested on: ATP;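 note: ATP exposure 15 min at 22 °C before imaging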
Test: switch fluorescence ratio, 500 uM ATP over buffer (Cy3 cluster intensity, sum of 5 cycles each) (fold (ratio)); higher = stronger signal-on switching upon ATP binding; sequences stand for … in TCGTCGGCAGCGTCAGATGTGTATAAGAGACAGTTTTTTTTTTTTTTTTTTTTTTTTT…TC
Conditions: aptamer strand: ATP DNA aptamer (quencher-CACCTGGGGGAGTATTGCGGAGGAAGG + anchor), 100 nM annealed; ATP concentration: 500 uM
Parameter switch fluorescence ratio: see the listing below.
readout.kind: switch fluorescence ratio

- chain: "CTGGTTTCGA"
  readout.kind: "switch fluorescence ratio"
  value.observed: 1.02
- chain: "GGAAACTCGG"
  readout.kind: "switch fluorescence ratio"
  value.observed: 0.986
- chain: "GCTAGATGCG"
  readout.kind: "switch fluorescence ratio"
  value.observed: 0.973
- chain: "GGTGGGAATG"
  readout.kind: "switch fluorescence ratio"
  value.observed: 0.99
- chain: "TTCAATTTGC"
  readout.kind: "switch fluorescence ratio"
  value.observed: 1.02
- chain: "GAGGGCAGCA"
  readout.kind: "switch fluorescence ratio"
  value.observed: 1.01
- chain: "CACCCCGCAC"
  readout.kind: "switch fluorescence ratio"
  value.observed: 3.46
- chain: "TGTTGAAATC"
  readout.kind: "switch fluorescence ratio"
  value.observed: 1.01
- chain: "AAATGACAGT"
  readout.kind: "switch fluorescence ratio"
  value.observed: 1.01
- chain: "GATAATATAA"
  readout.kind: "switch fluorescence ratio"
  value.observed: 1.02
- chain: "CGGTAGGGTA"
  readout.kind: "switch fluorescence ratio"
  value.observed: 0.991
- chain: "TTCGAAGGAA"
  readout.kind: "switch fluorescence ratio"
  value.observed: 1.1
- chain: "GGGTACTAGT"
  readout.kind: "switch fluorescence ratio"
  value.observed: 1.05
- chain: "CCACAAAATT"
  readout.kind: "switch fluorescence ratio"
  value.observed: 1.1
- chain: "GGGGTTGGAA"
  readout.kind: "switch fluorescence ratio"
  value.observed: 0.987
- chain: "TTAAAAATAT"
  readout.kind: "switch fluorescence ratio"
  value.observed: 1.02
- chain: "TAGGAGGTCC"
  readout.kind: "switch fluorescence ratio"
  value.observed: 0.96
- chain: "AATTTTCAGA"
  readout.kind: "switch fluorescence ratio"
  value.observed: 1.03
- chain: "CGTTTAGACG"
  readout.kind: "switch fluorescence ratio"
  value.observed: 1.09
- chain: "GAATTAGGTA"
  readout.kind: "switch fluorescence ratio"
  value.observed: 0.962
- chain: "CGAAGTTTCG"
  readout.kind: "switch fluorescence ratio"
  value.observed: 1.02
- chain: "GGGTCGGATG"
  readout.kind: "switch fluorescence ratio"
  value.observed: 1.03
- chain: "AATATTCTAG"
  readout.kind: "switch fluorescence ratio"
  value.observed: 0.994
- chain: "CAGACGCGGG"
  readout.kind: "switch fluorescence ratio"
  value.observed: 0.99
- chain: "TGATGGCGGT"
  readout.kind: "switch fluorescence ratio"
  value.observed: 1.04
- chain: "GTAATACTTG"
  readout.kind: "switch fluorescence ratio"
  value.observed: 1.08
- chain: "GGCTATATTT"
  readout.kind: "switch fluorescence ratio"
  value.observed: 0.991
- chain: "CCGTTGAGCG"
  readout.kind: "switch fluorescence ratio"
  value.observed: 1.03
- chain: "AGGGGTCCGT"
  readout.kind: "switch fluorescence ratio"
  value.observed: 0.969
- chain: "GCCGTGGCGG"
  readout.kind: "switch fluorescence ratio"
  value.observed: 0.975
- chain: "TTACAAGGTT"
  readout.kind: "switch fluorescence ratio"
  value.observed: 1.02
- chain: "TTGTGTAATT"
  readout.kind: "switch fluorescence ratio"
  value.observed: 1.06
- chain: "TTTATTTCCA"
  readout.kind: "switch fluorescence ratio"
  value.observed: 0.996
- chain: "GGGGGGCCTA"
  readout.kind: "switch fluorescence ratio"
  value.observed: 0.988
- chain: "CCAAGTGCTG"
  readout.kind: "switch fluorescence ratio"
  value.observed: 0.994
- chain: "TAAAAAGATT"
  readout.kind: "switch fluorescence ratio"
  value.observed: 0.988
- chain: "AGACAACGGC"
  readout.kind: "switch fluorescence ratio"
  value.observed: 1.02
- chain: "TTACTGGATA"
  readout.kind: "switch fluorescence ratio"
  value.observed: 0.987
- chain: "GGAATTCCCG"
  readout.kind: "switch fluorescence ratio"
  value.observed: 0.98
- chain: "AAAAAAATGT"
  readout.kind: "switch fluorescence ratio"
  value.observed: 1.05
- chain: "CCTAAGTGGG"
  readout.kind: "switch fluorescence ratio"
  value.observed: 1.02
- chain: "GGGGTTACGC"
  readout.kind: "switch fluorescence ratio"
  value.observed: 1.03
- chain: "CGGGAAGTTT"
  readout.kind: "switch fluorescence ratio"
  value.observed: 0.999
- chain: "GAATCAGCGG"
  readout.kind: "switch fluorescence ratio"
  value.observed: 0.989
- chain: "GGACACGCAG"
  readout.kind: "switch fluorescence ratio"
  value.observed: 1.02
- chain: "CTGGTAAGGT"
  readout.kind: "switch fluorescence ratio"
  value.observed: 0.995
- chain: "TGGGTTATGA"
  readout.kind: "switch fluorescence ratio"
  value.observed: 0.994
- chain: "CTACGGAGGG"
  readout.kind: "switch fluorescence ratio"
  value.observed: 1.06
- chain: "GGATGGGCAA"
  readout.kind: "switch fluorescence ratio"
  value.observed: 1.03
- chain: "AGGGTATCGC"
  readout.kind: "switch fluorescence ratio"
  value.observed: 0.993
- chain: "GTACTGCCTG"
  readout.kind: "switch fluorescence ratio"
  value.observed: 1
- chain: "TCCGTTAAGA"
  readout.kind: "switch fluorescence ratio"
  value.observed: 1.08
- chain: "CGATCCCGGG"
  readout.kind: "switch fluorescence ratio"
  value.observed: 1.07
- chain: "CGTGAGAATG"
  readout.kind: "switch fluorescence ratio"
  value.observed: 0.997
- chain: "TCGGCATTTT"
  readout.kind: "switch fluorescence ratio"
  value.observed: 1.03
- chain: "TATAGGGATT"
  readout.kind: "switch fluorescence ratio"
  value.observed: 0.984
- chain: "GTGAAAGTGG"
  readout.kind: "switch fluorescence ratio"
  value.observed: 0.979
- chain: "GAAATGTGAG"
  readout.kind: "switch fluorescence ratio"
  value.observed: 0.98
- chain: "AAGGGATTTA"
  readout.kind: "switch fluorescence ratio"
  value.observed: 1.04
- chain: "GGTACGTCGG"
  readout.kind: "switch fluorescence ratio"
  value.observed: 0.979
- chain: "CGTTCGTGTG"
  readout.kind: "switch fluorescence ratio"
  value.observed: 1.02
- chain: "CGTGGAGGGT"
  readout.kind: "switch fluorescence ratio"
  value.observed: 0.997
- chain: "TCTTATTGCT"
  readout.kind: "switch fluorescence ratio"
  value.observed: 0.96
- chain: "TACAGTTTCG"
  readout.kind: "switch fluorescence ratio"
  value.observed: 1.03
- chain: "TTGAGATTGA"
  readout.kind: "switch fluorescence ratio"
  value.observed: 1.01
- chain: "GGACTTCGCG"
  readout.kind: "switch fluorescence ratio"
  value.observed: 1.01
- chain: "AATCTCGTAA"
  readout.kind: "switch fluorescence ratio"
  value.observed: 1.02
- chain: "AATGGCTAGG"
  readout.kind: "switch fluorescence ratio"
  value.observed: 1.01
- chain: "CGGTGGGAGA"
  readout.kind: "switch fluorescence ratio"
  value.observed: 1.02
- chain: "ATGGTGTCGA"
  readout.kind: "switch fluorescence ratio"
  value.observed: 0.947
- chain: "TACGGGCTTT"
  readout.kind: "switch fluorescence ratio"
  value.observed: 1.03
- chain: "GCCGTCTCCC"
  readout.kind: "switch fluorescence ratio"
  value.observed: 1.03
- chain: "GGTATATAAA"
  readout.kind: "switch fluorescence ratio"
  value.observed: 1
- chain: "GGTTGATGGG"
  readout.kind: "switch fluorescence ratio"
  value.observed: 0.999
- chain: "GTGCGCAGAT"
  readout.kind: "switch fluorescence ratio"
  value.observed: 0.982
- chain: "CAGATTTCTA"
  readout.kind: "switch fluorescence ratio"
  value.observed: 1.02
- chain: "GTAATAAGCG"
  readout.kind: "switch fluorescence ratio"
  value.observed: 1.01
- chain: "GATCGTATAT"
  readout.kind: "switch fluorescence ratio"
  value.observed: 0.999
- chain: "TATCATATCA"
  readout.kind: "switch fluorescence ratio"
  value.observed: 0.956
- chain: "TAGGTAGATG"
  readout.kind: "switch fluorescence ratio"
  value.observed: 1.02
- chain: "TTTTAGGGCT"
  readout.kind: "switch fluorescence ratio"
  value.observed: 0.989
